The reported measurements were obtained from ChEMBL document CHEMBL5346963.

# test system: Cystic fibrosis transmembrane conductance regulator (Homo sapiens, UniProt P13569, F508DEL)
# Sequence (P13569 as listed by the source): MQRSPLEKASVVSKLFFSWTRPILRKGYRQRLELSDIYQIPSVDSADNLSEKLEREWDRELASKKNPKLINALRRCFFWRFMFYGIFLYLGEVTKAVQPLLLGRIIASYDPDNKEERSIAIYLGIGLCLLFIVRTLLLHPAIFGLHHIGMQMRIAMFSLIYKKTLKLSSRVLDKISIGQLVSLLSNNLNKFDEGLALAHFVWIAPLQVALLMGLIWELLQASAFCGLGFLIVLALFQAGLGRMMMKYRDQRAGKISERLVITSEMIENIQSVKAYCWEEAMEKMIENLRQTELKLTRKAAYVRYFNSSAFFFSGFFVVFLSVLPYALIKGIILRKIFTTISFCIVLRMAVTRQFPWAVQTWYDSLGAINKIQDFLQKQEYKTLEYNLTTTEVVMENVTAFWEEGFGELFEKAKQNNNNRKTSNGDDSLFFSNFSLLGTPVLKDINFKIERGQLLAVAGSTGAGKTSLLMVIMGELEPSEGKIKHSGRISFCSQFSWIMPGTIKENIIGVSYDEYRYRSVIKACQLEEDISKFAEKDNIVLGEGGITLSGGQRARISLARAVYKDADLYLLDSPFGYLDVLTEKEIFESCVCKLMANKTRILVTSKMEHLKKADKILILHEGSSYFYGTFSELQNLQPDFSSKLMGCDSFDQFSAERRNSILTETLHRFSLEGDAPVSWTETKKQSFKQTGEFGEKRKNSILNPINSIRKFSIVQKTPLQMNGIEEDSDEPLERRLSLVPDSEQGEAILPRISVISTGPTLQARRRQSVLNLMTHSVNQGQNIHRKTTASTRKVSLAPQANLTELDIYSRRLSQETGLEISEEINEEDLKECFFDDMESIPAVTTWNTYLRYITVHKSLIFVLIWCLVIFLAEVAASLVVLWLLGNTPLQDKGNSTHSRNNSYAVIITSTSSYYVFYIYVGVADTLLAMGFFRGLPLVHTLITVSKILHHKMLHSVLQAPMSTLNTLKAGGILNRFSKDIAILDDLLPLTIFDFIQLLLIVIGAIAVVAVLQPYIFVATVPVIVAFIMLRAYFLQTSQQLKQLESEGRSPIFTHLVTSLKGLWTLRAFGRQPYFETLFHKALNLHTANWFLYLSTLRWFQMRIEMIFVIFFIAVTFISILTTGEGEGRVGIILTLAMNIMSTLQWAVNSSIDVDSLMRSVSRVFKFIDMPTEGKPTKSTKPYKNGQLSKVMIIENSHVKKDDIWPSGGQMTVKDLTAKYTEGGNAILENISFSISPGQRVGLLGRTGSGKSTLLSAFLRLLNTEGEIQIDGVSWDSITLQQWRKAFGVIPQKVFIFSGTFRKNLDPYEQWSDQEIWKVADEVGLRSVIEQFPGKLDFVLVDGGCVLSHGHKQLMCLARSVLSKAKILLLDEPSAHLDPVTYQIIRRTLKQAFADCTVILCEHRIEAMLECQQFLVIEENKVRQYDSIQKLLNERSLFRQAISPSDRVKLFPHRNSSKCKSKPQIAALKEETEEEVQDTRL
# assay: Corrector activity at CFTR F508del mutant in human CFBE41o- cells incubated for 25 mins by microplate reader based analysis
# Type: cell-based
reported endpoint: pEC50
In textbook form, pEC50 equals minus log to base ten of the concentration in mol/L.

Incoming: Input Cc1ns/c(=N\C(=N\c2ccccc2)c2ccccc2)n1Cc1ccccc1 , output reported pEC50.
Outgoing: 5.59
